Tested on: P-gp
Experiment: in vitro
Format: in vitro ADME, human
Conditions: human, Caco-2, Papp × 10^−4 (cm/s) (A→B)
readout-kind: Papp A→B at 180 min, 150 μg/mL (×10⁻⁶ cm/s)

| compound | readout-kind | quantitative-result |
| --- | --- | --- |
| O=C(/C=C/c1ccc(O)cc1)OC[C@H]1O[C@@H](Oc2c(-c3ccc(O)cc3)oc3cc(O)cc(O)c3c2=O)[C@H](O)[C@@H](O)[C@@H]1O [Tiliroside] | Papp A→B at 180 min, 150 μg/mL | 261 |

---

Test: in vitro
Format: in vitro ADME, human
Conditions: human, Caco-2, Papp × 10^−4 (cm/s) (A→B)

| compound | Papp A→B at 180 min, 100 μg/mL (×10⁻⁶ cm/s) |
| --- | --- |
| O=C(/C=C/c1ccc(O)cc1)OC[C@H]1O[C@@H](Oc2c(-c3ccc(O)cc3)oc3cc(O)cc(O)c3c2=O)[C@H](O)[C@@H](O)[C@@H]1O [Tiliroside] | 176 |
